Experiment: Lipophilicity, log P of the compound
Details: octanol/water, logP
measure_name: logP
Could you respond with only the numeric value?

• C/C(=N\NC(=O)c1ccncc1)c1cccc(CN2CCN(c3ccccn3)CC2)c1O = 2.59
• NNC(=O)c1cscn1 = -2.05
• CCN(CC)Cc1cccc(/C(C)=N/NC(=O)c2ccncc2)c1O = 2.09
• NNC(=O)CCCCCCCCCCC(=O)NN = -2.03

Please find the next molecule below.
response.value for C/C(=N\NC(=O)c1ccncc1)c1cccc(CN2CCCCC2)c1O (field: logP) = 2.55

====

System: Mycobacterium tuberculosis
Experiment: Antitubercular activity against Mycobacterium tuberculosis BCG
Format: functional
measure_name: log10 of MIC (log10 of the value in mg/L)
Hey, these are logged values: log10 of MIC, mg/L being the unit before logging.

* Cn1cncc1C(=O)NN | 2.48
* Cc1c(C(=O)NN)sc(C(=O)NN)c1C | 1.48
* O=C(N/N=C/C(O)C(O)C(O)C(O)CO)c1cccs1 (stereo unspecified) | -0.22
* O=C(NNC(=O)c1cccs1)c1cccs1 | 1.18
* CC(=O)Nc1ccc(/C=N\NC(=O)c2ccco2)cc1 | 0.65

response.value for CCCCCC/C=N/NC(=O)c1ccncc1 (field: log10 of MIC) = -1.52

response.value for NNC(=O)c1ccccc1N (field: log10 of MIC) = 1.48

response.value for CC(C)(C#N)NNC(=O)c1ccco1 (field: log10 of MIC) = 0.48
